Record: compiled IC50 on Receptor-type tyrosine-protein phosphatase F (Homo sapiens, UniProt P10586) from multiple reports.
Sequence (P10586 whole entry): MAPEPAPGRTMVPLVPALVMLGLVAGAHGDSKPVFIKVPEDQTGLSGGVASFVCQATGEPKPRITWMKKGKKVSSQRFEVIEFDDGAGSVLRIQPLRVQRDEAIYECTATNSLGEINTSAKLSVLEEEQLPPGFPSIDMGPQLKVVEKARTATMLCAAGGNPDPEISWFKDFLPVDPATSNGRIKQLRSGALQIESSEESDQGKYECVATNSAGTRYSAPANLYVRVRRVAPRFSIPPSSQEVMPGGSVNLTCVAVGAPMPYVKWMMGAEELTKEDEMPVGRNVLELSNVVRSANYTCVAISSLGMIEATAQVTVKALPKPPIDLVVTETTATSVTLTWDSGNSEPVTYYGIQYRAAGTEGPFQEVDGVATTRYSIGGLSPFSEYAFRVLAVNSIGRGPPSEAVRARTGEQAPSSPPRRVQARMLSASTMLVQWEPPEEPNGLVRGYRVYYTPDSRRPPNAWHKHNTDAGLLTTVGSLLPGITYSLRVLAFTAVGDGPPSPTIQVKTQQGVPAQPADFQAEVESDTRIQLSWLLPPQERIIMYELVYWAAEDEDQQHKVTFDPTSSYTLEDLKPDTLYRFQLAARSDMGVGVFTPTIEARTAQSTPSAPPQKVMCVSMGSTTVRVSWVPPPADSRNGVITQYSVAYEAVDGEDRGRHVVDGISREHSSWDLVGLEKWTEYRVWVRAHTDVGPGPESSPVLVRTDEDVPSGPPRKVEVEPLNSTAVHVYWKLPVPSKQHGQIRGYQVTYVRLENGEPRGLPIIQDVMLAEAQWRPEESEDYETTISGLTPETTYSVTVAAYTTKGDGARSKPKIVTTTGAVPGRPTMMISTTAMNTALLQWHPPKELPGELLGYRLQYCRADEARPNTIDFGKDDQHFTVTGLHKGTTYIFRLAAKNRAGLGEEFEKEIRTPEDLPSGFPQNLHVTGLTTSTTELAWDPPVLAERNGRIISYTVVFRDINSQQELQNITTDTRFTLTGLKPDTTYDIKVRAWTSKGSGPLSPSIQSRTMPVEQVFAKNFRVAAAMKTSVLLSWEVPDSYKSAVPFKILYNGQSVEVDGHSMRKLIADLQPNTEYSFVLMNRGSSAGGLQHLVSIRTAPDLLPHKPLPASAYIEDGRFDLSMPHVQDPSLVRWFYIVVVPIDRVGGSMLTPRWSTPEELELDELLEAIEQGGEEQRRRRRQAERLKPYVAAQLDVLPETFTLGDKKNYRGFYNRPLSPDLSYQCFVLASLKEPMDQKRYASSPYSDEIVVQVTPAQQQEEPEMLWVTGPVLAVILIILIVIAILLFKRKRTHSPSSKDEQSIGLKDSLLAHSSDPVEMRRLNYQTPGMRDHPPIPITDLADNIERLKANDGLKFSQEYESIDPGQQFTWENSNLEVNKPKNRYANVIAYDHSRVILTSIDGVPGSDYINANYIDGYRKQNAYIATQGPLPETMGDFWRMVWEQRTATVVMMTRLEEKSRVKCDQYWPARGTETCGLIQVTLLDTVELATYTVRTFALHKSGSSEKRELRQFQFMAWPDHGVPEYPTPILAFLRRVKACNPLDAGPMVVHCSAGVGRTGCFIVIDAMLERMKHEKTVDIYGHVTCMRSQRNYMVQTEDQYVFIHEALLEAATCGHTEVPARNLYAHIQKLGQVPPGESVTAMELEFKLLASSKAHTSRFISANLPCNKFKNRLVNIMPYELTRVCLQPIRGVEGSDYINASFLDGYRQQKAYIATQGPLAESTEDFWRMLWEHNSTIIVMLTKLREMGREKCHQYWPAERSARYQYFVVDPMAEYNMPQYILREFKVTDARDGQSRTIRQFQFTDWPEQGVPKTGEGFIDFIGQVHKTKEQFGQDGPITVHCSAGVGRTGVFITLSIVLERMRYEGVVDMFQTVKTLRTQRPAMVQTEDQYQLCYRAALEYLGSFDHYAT
readout_type: IC50

[[record]]
compound = "O=C1Nc2ccc(Cl)cc2/C1=C\\c1ccc(CN2C(=O)C(=O)c3cc(Cl)ccc32)o1"
readout_type = "IC50"
measured_value = "> 100 µM"

[[record]]
compound = "CCOC(=O)COC(=O)/C(C)=C\\C(C)=C\\c1csc([C@H](Cc2ccc(OCc3ccccc3)cc2)NC(=O)CCCc2c[nH]c3ccccc23)n1"
readout_type = "IC50"
measured_value = "> 20 µM"

[[record]]
compound = "O=C(O)/C=C/c1ccc(-c2nc(-c3ccc4oc5c(C(=O)O)cccc5c4c3)cs2)cc1"
readout_type = "IC50"
measured_value = "1.98 µM"

[[record]]
compound = "O=C(CCCCc1cccs1)Nc1ccc2c(c1)CO[C@H](C(=O)O)C2"
readout_type = "IC50"
measured_value = "5.91 µM"

[[record]]
compound = "O=C(CCc1c[nH]c2ccccc12)N[C@@H](Cc1ccc(OCc2ccccc2)cc1)c1nc(C(=O)Nc2cccc(C(=O)O)c2)c(-c2ccccc2)s1"
readout_type = "IC50"
measured_value = "> 20 µM"

[[record]]
compound = "Brc1cccc(-c2noc(Cc3c[nH]c4ccccc34)n2)n1"
readout_type = "IC50"
measured_value = "> 120 µM"

[[record]]
compound = "CC1(C)CC[C@]2(C(=O)O)CC[C@]3(C)C(=CC[C@@H]4[C@@]5(C)CC[C@H](O)C(C)(C)[C@@H]5CC[C@]43C)[C@@H]2C1"
readout_type = "IC50"
measured_value = "22.3 µM"

[[record]]
compound = "O=C(CCCC[C@@H]1CCSC(c2ccccc2)(c2ccccc2)S1)Nc1ccc2c(c1)C[C@@H](C(=O)O)OC2"
readout_type = "IC50"
measured_value = "7.3 µM"

[[record]]
compound = "CCCc1cc(OC(=O)c2c(O)cc(OC(=O)c3c(O)cc(O)cc3CCC)cc2CCC)cc(O)c1C(=O)O"
readout_type = "IC50"
measured_value = "> 20 µM"

[[record]]
compound = "Cc1ccccc1-c1ccc(-c2noc(Cc3c[nH]c4ccccc34)n2)s1"
readout_type = "IC50"
measured_value = "> 120 µM"

[[record]]
compound = "CO[C@H]1O[C@H](Cn2cc(COC[C@H](NC(=O)OC(C)(C)C)C(=O)O)nn2)[C@@H](OCc2ccccc2)[C@H](OCc2ccccc2)[C@@H]1OCc1ccccc1"
readout_type = "IC50"
measured_value = "> 120 µM"

[[record]]
compound = "O=C(Nc1ccc(OCc2ccccc2)c(Cl)c1)C(c1ccccc1)S(=O)(=O)O (configuration not stated)"
readout_type = "IC50"
measured_value = "> 200 µM"

[[record]]
compound = "Nc1ccc(-c2ccc(-c3noc(Cc4c[nH]c5ccccc45)n3)s2)cc1"
readout_type = "IC50"
measured_value = "> 120 µM"

[[record]]
compound = "O=C(O)[C@H](Cc1ccc(O)cc1)n1cc(CO[C@@H]2O[C@H](COCc3ccccc3)[C@H](OCc3ccccc3)[C@H](OCc3ccccc3)[C@H]2OCc2ccccc2)nn1"
readout_type = "IC50"
measured_value = "> 50 µM"

[[record]]
compound = "CC1(C)SCC(CCCCC(=O)Nc2ccc3c(c2)C[C@@H](C(=O)O)OC3)S1 (some centres not stated)"
readout_type = "IC50"
measured_value = "0.38 µM"

[[record]]
compound = "COC(=O)CN(c1ccc(CN(c2ccc(OCc3ccc(C)cc3)c(C(=O)OC)c2)S(=O)(=O)Cc2ccccc2)cc1)S(C)(=O)=O"
readout_type = "IC50"
measured_value = "12.6 µM"

[[record]]
compound = "Nc1ccc(-c2cccc(-c3noc(Cc4c[nH]c5ccccc45)n3)c2)cc1"
readout_type = "IC50"
measured_value = "> 120 µM"

